- Substrate: O=C(O)C(=O)[C@@H](O)[C@H](O)C(=O)CO
- PROCEDURE DETAILS: purified protein, by the assay type
- Assay type: biochemical, Corynebacterium sp.
- APPLIED CONDITIONS: other: Kb = Michaelis constant for 2,5-diketo-D-gluconic acid, cofactor NADH, pH 7.0, 25° C
Lab note: compare kcat/Km with 1 min^−1/mm^−1, writing met if less and not met if equal or more.

Here are 5 proteins together with their reported answers.
# PROTEIN, LABEL CLASS
records = [
    ("2,5-diketo-D-gluconic acid reductase A (Corynebacterium sp., wild type SEQ ID NO:1) variant R238H (Corynebacterium sp. ATCC 31090; R238H) (protein, GroES fragment (N); made in house; host or cells: E. coli JM109) MTVPSIVLNDGNSIPQLGYGVFKVPPADTQRAVEEALEVGYRHIDTAAIYGNEEGVGAAIAASGIARDDLFITTKLWNDRHDGDEPAAAIAESLAKLALDQVDLYLVHWPTPAADNYVHAWEKMIELRAAGLTRSIGVSNHLVPHLERIVAATGVVPAVNQIELHPAYQQREITDWAAAHDVKIESWGPLGQGKYDLFGAEPVTAAAAAHGKTPAQAVLRWHLQKGFVVFPKSVRREHLEENLDVFDFDLTDTEIAAIDAMDPGDGSGRVSAHPDEVD", "not met"),
    ("2,5-diketo-D-gluconic acid reductase A (Corynebacterium sp., wild type SEQ ID NO:1) variant R235T (Corynebacterium sp. ATCC 31090; R235T) (protein, GroES fragment (N); made in house; host or cells: E. coli JM109) MTVPSIVLNDGNSIPQLGYGVFKVPPADTQRAVEEALEVGYRHIDTAAIYGNEEGVGAAIAASGIARDDLFITTKLWNDRHDGDEPAAAIAESLAKLALDQVDLYLVHWPTPAADNYVHAWEKMIELRAAGLTRSIGVSNHLVPHLERIVAATGVVPAVNQIELHPAYQQREITDWAAAHDVKIESWGPLGQGKYDLFGAEPVTAAAAAHGKTPAQAVLRWHLQKGFVVFPKSVTRERLEENLDVFDFDLTDTEIAAIDAMDPGDGSGRVSAHPDEVD", "not met"),
    ("2,5-diketo-D-gluconic acid reductase A (Corynebacterium sp., wild type SEQ ID NO:1) variant R235G (Corynebacterium sp. ATCC 31090; R235G) (protein, GroES fragment (N); made in house; host or cells: E. coli JM109) MTVPSIVLNDGNSIPQLGYGVFKVPPADTQRAVEEALEVGYRHIDTAAIYGNEEGVGAAIAASGIARDDLFITTKLWNDRHDGDEPAAAIAESLAKLALDQVDLYLVHWPTPAADNYVHAWEKMIELRAAGLTRSIGVSNHLVPHLERIVAATGVVPAVNQIELHPAYQQREITDWAAAHDVKIESWGPLGQGKYDLFGAEPVTAAAAAHGKTPAQAVLRWHLQKGFVVFPKSVGRERLEENLDVFDFDLTDTEIAAIDAMDPGDGSGRVSAHPDEVD", "not met"),
    ("2,5-diketo-D-gluconic acid reductase A, wild type, Corynebacterium sp. (ATCC Strain No. 31090; Genbank Accession No. 4699594; SEQ ID NO:1) (Corynebacterium sp. … (protein, GroES fragment (N); made in house; host or cells: E. coli JM109) MTVPSIVLNDGNSIPQLGYGVFKVPPADTQRAVEEALEVGYRHIDTAAIYGNEEGVGAAIAASGIARDDLFITTKLWNDRHDGDEPAAAIAESLAKLALDQVDLYLVHWPTPAADNYVHAWEKMIELRAAGLTRSIGVSNHLVPHLERIVAATGVVPAVNQIELHPAYQQREITDWAAAHDVKIESWGPLGQGKYDLFGAEPVTAAAAAHGKTPAQAVLRWHLQKGFVVFPKSVRRERLEENLDVFDFDLTDTEIAAIDAMDPGDGSGRVSAHPDEVD", "met"),
    ("2,5-diketo-D-gluconic acid reductase A (Corynebacterium sp., wild type SEQ ID NO:1) variant K232G (Corynebacterium sp. ATCC 31090; K232G) (protein, GroES fragment (N); made in house; host or cells: E. coli JM109) MTVPSIVLNDGNSIPQLGYGVFKVPPADTQRAVEEALEVGYRHIDTAAIYGNEEGVGAAIAASGIARDDLFITTKLWNDRHDGDEPAAAIAESLAKLALDQVDLYLVHWPTPAADNYVHAWEKMIELRAAGLTRSIGVSNHLVPHLERIVAATGVVPAVNQIELHPAYQQREITDWAAAHDVKIESWGPLGQGKYDLFGAEPVTAAAAAHGKTPAQAVLRWHLQKGFVVFPGSVRRERLEENLDVFDFDLTDTEIAAIDAMDPGDGSGRVSAHPDEVD", "met"),
]

query: Hi there! Is kcat/Km for 2,5-diketo-D-gluconic acid reductase A (Corynebacterium sp., wild type SEQ ID NO:1) variant K232S (Corynebacterium sp. ATCC 31090; K232S) (protein, GroES fragment (N); made in house; host or cells: E. coli JM109) MTVPSIVLNDGNSIPQLGYGVFKVPPADTQRAVEEALEVGYRHIDTAAIYGNEEGVGAAIAASGIARDDLFITTKLWNDRHDGDEPAAAIAESLAKLALDQVDLYLVHWPTPAADNYVHAWEKMIELRAAGLTRSIGVSNHLVPHLERIVAATGVVPAVNQIELHPAYQQREITDWAAAHDVKIESWGPLGQGKYDLFGAEPVTAAAAAHGKTPAQAVLRWHLQKGFVVFPSSVRRERLEENLDVFDFDLTDTEIAAIDAMDPGDGSGRVSAHPDEVD below 1 min^−1/mm^−1, do you know?
result: met
